Data origin: patent US20260258084A1

# Assay Text: Solubility testing of peptides at different pH
# Assay type: physicochemical
# Run Conditions: 50 mM phosphate buffer pH 6.5; target concentration 1 mg/ml; 2 hours agitation; read-out: Solubility Buffer pH 6.5
Positions of bridges follow the written chain, without caps; N, C: chain ends. Non-standard residues stand in square brackets, D forms with d. Residues, ends and D or L forms follow the SMILES beside them. *: point of attachment. Trp(7-Me) = Cc1cccc2c(C[C@H](N)C(=O)O)c[nH]c12; 2Nal = N[C@@H](Cc1ccc2ccccc2c1)C(=O)O; Me2NCH2CH2 = CN(C)CC*; Aib = CC(C)(N)C(=O)O; Ava = NCCCCC(=O)O; βAla = NCCC(=O)O
Measured Quantity: solubility at 2 h

• CC(=O)NCCCC[C@@H]1NC(=O)[C@H](Cc2c[nH]c3c(C)cccc23)NC(=O)[C@H]([C@@H](C)O)NC(=O)[C@H](CC(N)=O)NC(=O)[C@@H]2CSSC[C@H](NC1=O)C(=O)N[C@@H](Cc1ccc(OCCN(C)C)cc1)C(=O)N[C@@H](Cc1ccc3ccccc3c1)C(=O)NC(C)(C)C(=O)N[C@H](C(=O)N[C@@H](CC(N)=O)C(=O)N[C@@H](Cc1c[nH]cn1)C(=O)NCCC(N)=O)CCC(=O)NCCCCC(=O)N2 [compound 48] ([Ava]CNT[Trp(7-Me)]K(Ac)CY(Me2NCH2CH2)[2Nal][Aib]ENH[βAla]-NH2; disulfide 2-7; lactam N-11) = ≥ 1040 µg/mL

====

# Assay Text: Solubility testing of peptides at different pH
# Type: physicochemical
# Run Conditions: 50 mM HCl buffer; 50 mM HCl pH 1.2; target concentration 1 mg/ml; 2 hours agitation; read-out: Solubility Buffer pH 1.2
Positions of bridges follow the written chain, without caps; N, C: chain ends. Non-standard residues stand in square brackets, D forms with d. Residues, ends and D or L forms follow the SMILES beside them. *: point of attachment. Trp(7-Me) = Cc1cccc2c(C[C@H](N)C(=O)O)c[nH]c12; 2Nal = N[C@@H](Cc1ccc2ccccc2c1)C(=O)O; Me2NCH2CH2 = CN(C)CC*; Aib = CC(C)(N)C(=O)O; Ava = NCCCCC(=O)O; Sar = CNCC(=O)O
Measured Quantity: solubility at 2 h

- CC(=O)NCCCC[C@@H]1NC(=O)[C@H](Cc2c[nH]c3c(C)cccc23)NC(=O)[C@H]([C@@H](C)O)NC(=O)[C@H](CC(N)=O)NC(=O)[C@@H]2CSSC[C@H](NC1=O)C(=O)N[C@@H](Cc1ccc(OCCN(C)C)cc1)C(=O)N[C@@H](Cc1ccc3ccccc3c1)C(=O)NC(C)(C)C(=O)N[C@H](C(=O)N[C@@H](CC(N)=O)C(=O)N[C@@H](Cc1c[nH]cn1)C(=O)N(C)CC(N)=O)CCC(=O)NCCCCC(=O)N2 [compound 45] ([Ava]CNT[Trp(7-Me)]K(Ac)CY(Me2NCH2CH2)[2Nal][Aib]ENH[Sar]-NH2; disulfide 2-7; lactam N-11): ≥ 1160 µg/mL

====

# Assay Text: Chemical stability assessment of peptides (relative purity loss)
# Format: physicochemical
# Run Conditions: 50 mM HCl pH 1.2 + acetonitrile (1:1); 24 hours at 37° C.
Starred links: 1 amine or outer side, 2 acyl side, 3 side chain; linkers in the order of their positions; H or OH if unused. Positions of bridges follow the written chain, without caps; N, C: chain ends. Non-standard residues stand in square brackets, D forms with d. Residues, ends and D or L forms follow the SMILES beside them. *: point of attachment. 2Nal = N[C@@H](Cc1ccc2ccccc2c1)C(=O)O; X4 = CN(CCCCCC(=O)[*:2])[*:1]; αMeL = CC(C)C[C@](C)(N)C(=O)O; Me2NCH2CH2 = CN(C)CC*; Aib = CC(C)(N)C(=O)O; Ava = NCCCCC(=O)O
A collection of compounds and their measured Chemical stability (relative purity loss) Buffer pH 1.2
Measured Quantity: Chemical stability (relative purity loss) Buffer pH 1.2

- COc1ccc(C[C@@H]2NC(=O)[C@@H]3CSSC[C@H](NC(=O)CCCCNC(=O)CC[C@@H](C(=O)N[C@@H](CC(N)=O)C(=O)NCC(N)=O)NC(=O)C(C)(C)NC(=O)[C@H](Cc4ccc5ccccc5c4)NC2=O)C(=O)N[C@@H](CC(N)=O)C(=O)N[C@@H]([C@@H](C)O)C(=O)N[C@@H](Cc2c[nH]c4ccccc24)C(=O)N[C@@H](CCC(N)=O)C(=O)N3)cc1 [compound 4] ([Ava]CNTWQCY(Me)[2Nal][Aib]ENG-NH2; disulfide 2-7; lactam N-11): 22.4%
- CC(=O)NCCCC[C@@H]1NC(=O)[C@H](Cc2c[nH]c3c(C)cccc23)NC(=O)[C@@H](NC(C)=O)CCCCNC(=O)[C@@H]2CSSC[C@H](NC1=O)C(=O)N[C@@H](Cc1ccc(OCCN(C)C)cc1)C(=O)N[C@@H](Cc1ccc3ccccc3c1)C(=O)NC1(CCOCC1)C(=O)N[C@H](C(=O)N[C@@H](CC(N)=O)C(=O)N[C@@H](Cc1cccnc1)C(=O)N(C)CC(N)=O)CCCCN(C)CCCCN2C: 6.0%
- CC(C)C[C@@H](NC(=O)[C@H](CC(N)=O)NC(=O)[C@@H]1CCC(=O)NCCCCC(=O)N[C@H]2CSSC[C@H](NC(=O)[C@H](CCC(N)=O)NC(=O)[C@H](Cc3c[nH]c4ccccc34)NC(=O)[C@H]([C@@H](C)O)NC(=O)[C@H](CC(N)=O)NC2=O)C(=O)N[C@@H](Cc2ccc(OCCN(C)C)cc2)C(=O)N[C@@H](Cc2ccc3ccccc3c2)C(=O)N[C@@](C)(CC(C)C)C(=O)N1)C(N)=O [compound 10] ([Ava]CNTWQCY(Me2NCH2CH2)[2Nal][αMeL]EN[dL]-NH2; disulfide 2-7; lactam N-11): 6.7%
- COc1ccc(C[C@@H]2NC(=O)[C@@H]3CSSC[C@H](NC(=O)[C@@H](NC(C)=O)CCCCNC(=O)C[C@@H](C(=O)N[C@@H](CC(N)=O)C(=O)N[C@@H](CC(N)=O)C(N)=O)NC(=O)C(C)(C)NC(=O)[C@H](Cc4ccc5ccccc5c4)NC2=O)C(=O)N[C@@H](CC(N)=O)C(=O)N[C@@H]([C@@H](C)O)C(=O)N[C@@H](Cc2c[nH]c4ccccc24)C(=O)N[C@@H](CCC(N)=O)C(=O)N3)cc1 [compound 7] (Ac-KCNTWQCY(Me)[2Nal][Aib]DNN-NH2; lactam 1-11; disulfide 2-7): 28.9%
- CC(C)C[C@@H](NC(=O)[C@H](CC(N)=O)NC(=O)[C@@H]1CC(=O)N(C)CCCCCC(=O)N[C@H]2CSSC[C@H](NC(=O)[C@H](CCC(N)=O)NC(=O)[C@H](Cc3c[nH]c4ccccc34)NC(=O)[C@H]([C@@H](C)O)NC(=O)[C@H](CC(N)=O)NC2=O)C(=O)N[C@@H](Cc2ccc(OCCN(C)C)cc2)C(=O)N[C@@H](Cc2ccc3ccccc3c2)C(=O)N[C@@](C)(CC(C)C)C(=O)N1)C(N)=O [compound 40] ([X4]CNTWQCY(Me2NCH2CH2)[2Nal][αMeL]DN[dL]-NH2; disulfide 2-7; lactam N-11): 8.3%
